assay: amyloid nucleation score (Sup35N fusion, yeast selection) (log enrichment); library NNK2; higher = more nucleation; inactive = no reads after selection;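 also: zero at mode of non-aggregating sequences after 7 days selection at 30°C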

{"substance": "FQHNVAIKRWRRLADSLYSV", "amyloid nucleation score": 0.723}
{"substance": "FPFKILSVKPH", "amyloid nucleation score": 3.45}
{"substance": "TIWFFFL", "amyloid nucleation score": 7.08}
{"substance": "EVAEQH", "amyloid nucleation score": 0.426}
{"substance": "YIPCDKANRSFENC", "amyloid nucleation score": 1.19}
{"substance": "GEAFRKDPLRCYMFQGIIEQ", "amyloid nucleation score": 2.1}
{"substance": "LHLFIVGRKWSGDESAFLYA", "amyloid nucleation score": 0.154}
{"substance": "VHLANSMLY", "amyloid nucleation score": 3.15}
{"substance": "NSLMSFWVSVV", "amyloid nucleation score": 0.208}
{"substance": "RPWLVY", "amyloid nucleation score": 0.026}
{"substance": "DSSIAYFIGVLASIGADEDR", "amyloid nucleation score": 6.45}
{"substance": "KAGVKLSLGNCRYSTL", "amyloid nucleation score": 0.527}
{"substance": "SNEHKYFQNIATNVLV", "amyloid nucleation score": -0.371}
{"substance": "WFIWNVENR", "amyloid nucleation score": 7.15}
{"substance": "SLMKKTAGLFNVYVPSIGSS", "amyloid nucleation score": 0.378}
{"substance": "EVMEFSNDFSRIFFAFKGFV", "amyloid nucleation score": -0.665}
{"substance": "AVKCGNGSEF", "amyloid nucleation score": -0.066}
{"substance": "YLKPLAFITSILHAMTRPWH", "amyloid nucleation score": -1.28}

* * *

test: amyloid nucleation score (Sup35N fusion, yeast selection) (log enrichment); library NNK1; higher = more nucleation; inactive = no reads after selection
parameterMeasured: amyloid nucleation score

{"itemSequence": "SLRVTLTGQTDLASEFQWWL", "parameterMeasured": "amyloid nucleation score", "observed": "inactive"}
{"itemSequence": "NFRLCLWSDAGLIGKAVFGY", "parameterMeasured": "amyloid nucleation score", "observed": 0.718}
{"itemSequence": "TVVIDSFLCRLQNGVDLGS", "parameterMeasured": "amyloid nucleation score", "observed": "inactive"}
{"itemSequence": "ARGTGGSKAAPNYLVYTGCR", "parameterMeasured": "amyloid nucleation score", "observed": 0.684}
{"itemSequence": "LVSMSYSVREDDFISLLWGV", "parameterMeasured": "amyloid nucleation score", "observed": "inactive"}
{"itemSequence": "LRKMLMDE", "parameterMeasured": "amyloid nucleation score", "observed": "inactive"}
{"itemSequence": "VVLWLVDFPSPCPELKNLHF", "parameterMeasured": "amyloid nucleation score", "observed": "inactive"}
{"itemSequence": "CDGVMKSGVKKMSTSRDWFM", "parameterMeasured": "amyloid nucleation score", "observed": "inactive"}
{"itemSequence": "TSGSGINITL", "parameterMeasured": "amyloid nucleation score", "observed": "inactive"}

* * *

assay: amyloid nucleation score (Sup35N fusion, yeast selection) (log enrichment); library NNK3; higher = more nucleation; inactive = no reads after selection

{"itemSequence": "QMVIHTVLGLKSLCVMFPSR", "amyloid nucleation score": 1.04}
{"itemSequence": "QTSSTNPMVASKPQAQRACK", "amyloid nucleation score": "inactive"}
{"itemSequence": "PLEVLAKFFWDDWATHSMDL", "amyloid nucleation score": "inactive"}
{"itemSequence": "GFRMGLTHCHSALKEFRFCH", "amyloid nucleation score": "inactive"}
{"itemSequence": "LRTPGTGSFAESEDLSMTEG", "amyloid nucleation score": "inactive"}

* * *

assay: amyloid nucleation score (Sup35N fusion, yeast selection) (log enrichment); library NNK2; higher = more nucleation; inactive = no reads after selection

{"substance": "SIIIVKFLIGWRILWRSLTY", "amyloid nucleation score": "inactive"}
{"substance": "IDRCRNC", "amyloid nucleation score": "inactive"}
{"substance": "HDYVLFISECHKLLGAS", "amyloid nucleation score": "inactive"}

* * *

assay: amyloid nucleation score (Sup35N fusion, yeast selection) (log enrichment); library NNK2; higher = more nucleation; inactive = no reads after selection
parameterMeasured: amyloid nucleation score

{"substance": "NISDFVKLVSYWVSVRCDLR", "observed": -0.305}
{"substance": "RLLFVWV", "observed": 4.12}
{"substance": "RNVSNRPNAQIRKSVRCCWG", "observed": 0.388}
{"substance": "SWRENFGWGICCSTVWPRCR", "observed": 1.86}
{"substance": "SWMNYRCRQDMSCCK", "observed": 0.908}
{"substance": "HHFNCCTGNFYIYKLDDSLI", "observed": 5.49}
{"substance": "VSSRYCTCRLCHPWYSFWFS", "observed": -0.625}

* * *

assay: amyloid nucleation score (Sup35N fusion, yeast selection) (log enrichment); library NNK2; higher = more nucleation; inactive = no reads after selection
Give 1 when the value for amyloid nucleation score is at least 0.7. Give 0 when it is less.

{"substance": "QGELYRSANLLFVAEVSSWR", "labelValue": 0}
{"substance": "CGLVLVIRVYITSLYNSRFM", "labelValue": 1}
{"substance": "VTLMSV", "labelValue": 0}
{"substance": "MVRVYSVCDKDHQMYNHFFR", "labelValue": 0}
{"substance": "LIIFTGYRCSLPFMSFF", "labelValue": 0}
{"substance": "VRMEVIFYC", "labelValue": 1}
{"substance": "AFRVNWYDQNRYVEVKG", "labelValue": 0}
{"substance": "RCKCNAIEVT", "labelValue": 0}
{"substance": "FLYLALCKI", "labelValue": 1}
{"substance": "NTVRRVCFAVVEMSASIMDG", "labelValue": 1}
{"substance": "LKNFNLRIMTTPLNCNCNTY", "labelValue": 0}

* * *

assay: amyloid nucleation score (Sup35N fusion, yeast selection) (log enrichment); library NNK3; higher = more nucleation; inactive = no reads after selection
parameterMeasured: amyloid nucleation score

{"substance": "SFIRASKVCFDSHGCWFGLG", "parameterMeasured": "amyloid nucleation score", "observed": "inactive"}
{"substance": "FAFKLWRKVQYVFHLFYPAR", "parameterMeasured": "amyloid nucleation score", "observed": 0.342}
{"substance": "WLSGACEPPF", "parameterMeasured": "amyloid nucleation score", "observed": 0.718}
{"substance": "RSSFKG", "parameterMeasured": "amyloid nucleation score", "observed": "inactive"}
{"substance": "SSFGQICIRSMQYLVGCKWC", "parameterMeasured": "amyloid nucleation score", "observed": "inactive"}
{"substance": "AVCCCGRNIHMRSCRPGTTL", "parameterMeasured": "amyloid nucleation score", "observed": 0.531}
{"substance": "NGSIILICLVYVGLRCLWFL", "parameterMeasured": "amyloid nucleation score", "observed": "inactive"}
{"substance": "HSVIRRFNIPMELYHMWLIS", "parameterMeasured": "amyloid nucleation score", "observed": "inactive"}

* * *

assay: amyloid nucleation score (Sup35N fusion, yeast selection) (log enrichment); library NNK2; higher = more nucleation; inactive = no reads after selection
Labels assigned by amyloid nucleation score range: low bin = under -0.1, mid bin = from -0.1 up to 0.6, high bin = 0.6 and over

{"substance": "RFSCAEYVPVMT", "labelValue": "mid bin"}
{"substance": "DWFCVHKV", "labelValue": "mid bin"}
{"substance": "NMTVFT", "labelValue": "low bin"}
{"substance": "LGPCSVIGQMVMYDRYGLLD", "labelValue": "low bin"}
{"substance": "TVWCWVDRTMGLEWTYLTA", "labelValue": "high bin"}
{"substance": "NNCNSSSSFIIPVAFTSVIN", "labelValue": "low bin"}
{"substance": "INISCLKVGALSKGTRLFR", "labelValue": "high bin"}
{"substance": "VKMMWNCSLVDALATRGNVV", "labelValue": "mid bin"}
{"substance": "IYIGLCLRDYILDNMALMRQ", "labelValue": "low bin"}
{"substance": "KVSWEDSFLFLCQCRRDCTL", "labelValue": "high bin"}
{"substance": "LWSLLLWLPTYRYRLYLFGA", "labelValue": "low bin"}
{"substance": "KVPDKGEKLCSLLAFGYQG", "labelValue": "high bin"}
{"substance": "SGVLHRCEIPVLRACRLLL", "labelValue": "mid bin"}
{"substance": "AGRNIGIHIVGLDRQRSSAN", "labelValue": "mid bin"}

* * *

test: amyloid nucleation score (Sup35N fusion, yeast selection) (log enrichment); library NNK3; higher = more nucleation; inactive = no reads after selection
parameterMeasured: amyloid nucleation score

{"substance": "SVSVLHSYYLIYVCRDFFMK", "parameterMeasured": "amyloid nucleation score", "observed": 0.865}
{"substance": "YRRKVELIRSLRW", "parameterMeasured": "amyloid nucleation score", "observed": "inactive"}
{"substance": "VFYMRSETKLFL", "parameterMeasured": "amyloid nucleation score", "observed": -0.391}
{"substance": "PDDKLM", "parameterMeasured": "amyloid nucleation score", "observed": "inactive"}
{"substance": "NLWTTGIRTSPKNLYIVAFM", "parameterMeasured": "amyloid nucleation score", "observed": "inactive"}
{"substance": "LRLNLMSILKVEYRCSMITW", "parameterMeasured": "amyloid nucleation score", "observed": "inactive"}
{"substance": "GCNRVIYKRI", "parameterMeasured": "amyloid nucleation score", "observed": -0.609}
{"substance": "FVRIHVGSSTGIF", "parameterMeasured": "amyloid nucleation score", "observed": "inactive"}
{"substance": "SGFYNWI", "parameterMeasured": "amyloid nucleation score", "observed": "inactive"}
{"substance": "KEDKPESTDYNVNT", "parameterMeasured": "amyloid nucleation score", "observed": "inactive"}
{"substance": "YDGVNKLRSVCCVESSDFGL", "parameterMeasured": "amyloid nucleation score", "observed": "inactive"}
{"substance": "DTSVYFQSSTCCAKKSGHKP", "parameterMeasured": "amyloid nucleation score", "observed": "inactive"}
{"substance": "FRNRLGSTDNQWV", "parameterMeasured": "amyloid nucleation score", "observed": "inactive"}
{"substance": "GVHDRLTVSRFCLGVNGDGV", "parameterMeasured": "amyloid nucleation score", "observed": "inactive"}
{"substance": "LRVCISGYSN", "parameterMeasured": "amyloid nucleation score", "observed": "inactive"}
